Test system: MRAB (A. baumannii) ATCC BAA 1605
Assay type: cell-based, Acinetobacter baumannii
Details: ATCC BAA 1605, 18 h
Square brackets hold non-standard residues; d marks the D form. Peptide text beside a SMILES is read from it.
EXPERIMENTAL_READOUT: MIC MRAB (A. baumannii) ATCC BAA 1605 (µM)
Report as a plain number; the unit µM is understood.

QUERY: Which measured MIC MRAB (A. baumannii) ATCC BAA 1605 belongs to CC(C)[C@@H](NC(=O)[C@@H](Cc1c[nH]c2ccccc12)NC(=O)[C@@H](CCCNC(=N)N)NC(=O)[C@H](N)CCCNC(=N)N)C(=O)N[C@H](Cc1c[nH]c2ccccc12)C(=O)N[C@@H](C(=O)N[C@@H](C(=O)N[C@H](Cc1c[nH]c2ccccc12)C(=O)N[C@H](CCCCN)C(N)=O)C(C)C)C(C)C [KSH56, rrwvwvvwk] (H-[dR][dR][dW][dV][dW][dV][dV][dW][dK]-NH2; N-terminus assumed) , tested on MRAB (A. baumannii) ATCC BAA 1605?
RESULT: 1.25

QUERY: Which measured MIC MRAB (A. baumannii) ATCC BAA 1605 belongs to CC[C@@H](C)[C@@H](NC(=O)[C@@H](Cc1c[nH]c2ccccc12)NC(=O)[C@@H](CCCCN)NC(=O)[C@@H](CCCNC(=N)N)NC(=O)[C@H](N)CCCNC(=N)N)C(=O)N[C@H](Cc1c[nH]c2ccccc12)C(=O)N[C@H](Cc1c[nH]c2ccccc12)C(=O)N[C@H](CC(C)C)C(=O)N[C@H](Cc1c[nH]c2ccccc12)C(=O)N[C@H](CCCCN)C(N)=O [KSH51, rrkwiwwlwk] (H-[dR][dR][dK][dW][dI][dW][dW][dL][dW][dK]-NH2; N-terminus assumed) , tested on MRAB (A. baumannii) ATCC BAA 1605?
RESULT: 1.25

QUERY: Which measured MIC MRAB (A. baumannii) ATCC BAA 1605 belongs to CC[C@@H](C)[C@@H](NC(=O)[C@@H](Cc1c[nH]c2ccccc12)NC(=O)[C@@H](CCCCN)NC(=O)[C@@H](CCCNC(=N)N)NC(=O)[C@H](N)CCCNC(=N)N)C(=O)N[C@H](Cc1c[nH]c2ccccc12)C(=O)N[C@H](Cc1c[nH]c2ccccc12)C(=O)N[C@H](CC(C)C)C(=O)N[C@H](Cc1c[nH]c2ccccc12)C(=O)N[C@H](CCCCN)C(=O)N[C@H](CCCCN)C(=O)N[C@H](CCCCN)C(N)=O [KSH52, rrkwiwwlwkkk] (H-[dR][dR][dK][dW][dI][dW][dW][dL][dW][dK][dK][dK]-NH2; N-terminus assumed) , tested on MRAB (A. baumannii) ATCC BAA 1605?
RESULT: 1.25

QUERY: Which measured MIC MRAB (A. baumannii) ATCC BAA 1605 belongs to CC[C@@H](C)[C@@H](NC(=O)[C@@H](Cc1c[nH]c2ccccc12)NC(=O)[C@H](NC(=O)[C@@H](Cc1c[nH]c2ccccc12)NC(=O)[C@@H](CCCNC(=N)N)NC(=O)[C@@H](CCCNC(=N)N)NC(=O)[C@H](N)CCCNC(=N)N)[C@H](C)CC)C(=O)N[C@H](CC(C)C)C(=O)N[C@H](Cc1c[nH]c2ccccc12)C(N)=O [KSH59, rrrwiwilw] (H-[dR][dR][dR][dW][dI][dW][dI][dL][dW]-NH2; N-terminus assumed) , tested on MRAB (A. baumannii) ATCC BAA 1605?
RESULT: 1.25

QUERY: Which measured MIC MRAB (A. baumannii) ATCC BAA 1605 belongs to CC[C@@H](C)[C@@H](NC(=O)[C@@H](Cc1c[nH]c2ccccc12)NC(=O)[C@@H](C)NC(=O)[C@@H](C)NC(=O)[C@H](N)Cc1c[nH]c2ccccc12)C(=O)NCC(=O)N[C@H](CC(C)C)C(=O)N[C@H](CCCNC(=N)N)C(=O)N[C@H](CCCCN)C(=O)N[C@H](CCCNC(=N)N)C(=O)N[C@H](CCCCN)C(N)=O [KSH77, waawiglrkrk] (H-[dW][dA][dA][dW][dI]G[dL][dR][dK][dR][dK]-NH2; N-terminus assumed) , tested on MRAB (A. baumannii) ATCC BAA 1605?
RESULT: 2.5

Hello, the source for this data is patent US20230287044A1, in case you need it.
